B1: LINE1-mini (parent)
chain: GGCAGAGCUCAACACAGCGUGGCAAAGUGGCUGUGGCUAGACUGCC

variants of: B1; assay: self-cleavage, relative activity (ratio to wild type); higher = more cleavage; in vitro, sequencing; the parent is a self-cleaving ribozyme
Use 0.1 as the dividing line for self-cleavage, with the line itself on the Y side and lower values as N.

polymer-sequence | category-label
GGCAGCGCUCAACACAGCGUGGCAAAGUGGCUGUGUCUAGACUGCC [A6C G36U] | N
GGCAGAGCUCAACGCAGCGUGGCAAAGUGGCUGUGGCUAGGCUGCC [A14G A41G] | Y
GGCAGAGGUCAACACAGCGUGGCAAAGUGGCUGUGGCUAGACCGCC [C8G U43C] | N
GGCAGAGCUCAACACAGCGUGACAAAGUGGCUGUGGCUAUACUGCC [G22A G40U] | Y
GGCAGAGCUCAACACAGCGUGGCAAAGUGGCUGUGGCUACUCUGCC [G40C A41U] | Y
GGCAGAGCUCAACUCAGCGUGGCGAAGUGGCUGUGGCUAGACUGCC [A14U A24G] | Y
GCCAGAGCUCAACACAGCGUGGCAAAGUGGCUGUGGCUAGAUUGCC [G2C C42U] | N
GGAAGAGCUCAACUCAGCGUGGCAAAGUGGCUGUGGCUAGACUGCC [C3A A14U] | Y
GGCAGAGCUCAACACAGCGUGGCAAAGUCGCCGUGGCUAGACUGCC [G29C U32C] | Y
GGCAUAGCUCAACACAGCGUGGCAAAGUAGCUGUGGCUAGACUGCC [G5U G29A] | Y
GGCAGAGCUCAGCACAGCGUGGCAAAGUGGCUGUGGUUAGACUGCC [A12G C37U] | N
GGCAGAGCCCAACACAGCGUGGCAAAGUGGAUGUGGCUAGACUGCC [U9C C31A] | N
GGCAGAGCUCAACACAGCGUGGCAAAGUGGCUGUGGCUACCCUGCC [G40C A41C] | N
GGCAGAGCUCAACACAGCGUGGCAAAGUGGCUGUGGCUGGACUGUC [A39G C45U] | N
GGCAGAGCUCAACACAGCGUGGCAAAGUGGCUGUGACUAGACUGUC [G36A C45U] | Y
GGGAGAGCUCAACACAGCGUGGCAAAGUGGCUGUUGCUAGACUGCC [C3G G35U] | Y
GGCAGAGCUCAACACAGCGCGGCAACGUGGCUGUGGCUAGACUGCC [U20C A26C] | Y
GGCAAAGCUCAACACAGCGUGGCAAAGUGGCUGUGGCUAAACUGCC [G5A G40A] | Y
GGCAGAGCUCAACGCAGCGUGGCAAAGUGGCUGUGGCUAGACUGCC [A14G] | Y
